Values compiled from BindingDB's records for patent US20230357269.

Quick record of IC50 values for Leucine-rich repeat serine/threonine-protein kinase 2 (Homo sapiens).

smiles.notation | IC50
O=C1NCCCOc2ccc3[nH]nc(c3c2)-c2cc(Br)cc(c2)CO1 | < 10 nM

The recorded IC50 with Leucine-rich repeat serine/threonine-protein kinase 2 (Homo sapiens) for `O=C1NCCCOc2ccc3[nH]nc(c3c2)-c2ccc(Br)c(c2)CO1` was < 10 nM
